# Test system: Staphylococcus aureus 447
# test details: broth micro-dilution MIC
# Type: cell-based
The compounds listed here are annotated with their MIC.
recorded metric: MIC (µg/mL)

compound: CNC(CC(C)C)C(=O)NC1C(=O)NC(CC(N)=O)C(=O)NC2C(=O)NC3C(=O)NC(C(=O)NC(C(=O)O)c4cc(O)cc(O)c4-c4cc3ccc4O)C(OC3CC(C)(N)C(O)C(C)O3)c3ccc(c(Cl)c3)Oc3cc2cc(c3OC2OC(CO)C(O)C(O)C2OC2CC(C)(NCc3cc(C)cc(C)c3)C(O)C(C)O2)Oc2ccc(cc2Cl)C1O (stereo not drawn) [Compound 89]
target or system: Staphylococcus aureus 447
measured number: 1
--
compound: CC(C)CC(C(=O)NC1C(=O)NC(CC(N)=O)C(=O)NC2C(=O)NC3C(=O)NC(C(=O)NC(C(=O)O)c4cc(O)cc(O)c4-c4cc3ccc4O)C(OC3CC(C)(N)C(O)C(C)O3)c3ccc(c(Cl)c3)Oc3cc2cc(c3OC2OC(CO)C(O)C(O)C2OC2CC(C)(NCc3c4ccccc4cc4ccccc34)C(O)C(C)O2)Oc2ccc(cc2Cl)C1O)N(C)Cc1c2ccccc2cc2ccccc12 (stereo not drawn) [Compound 284]
target or system: Staphylococcus aureus 447
measured number: 8
--
compound: CCCc1ccc(-c2ccc(CNC3(C)CC(OC4C(Oc5c6cc7cc5Oc5ccc(cc5Cl)C(OC5CC(C)(N)C(O)C(C)O5)C5NC(=O)C(NC(=O)C7NC(=O)C(CC(N)=O)NC(=O)C(NC(=O)C(CC(C)C)NC)C(O)c7ccc(c(Cl)c7)O6)c6ccc(O)c(c6)-c6c(O)cc(O)cc6C(C(=O)O)NC5=O)OC(CO)C(O)C4O)OC(C)C3O)cc2)cc1 (stereo not drawn) [Compound 107]
target or system: Staphylococcus aureus 447
measured number: 1
--
compound: CNC(CC(C)C)C(=O)NC1C(=O)NC(CC(N)=O)C(=O)NC2C(=O)NC3C(=O)NC(C(=O)NC(C(=O)O)c4cc(O)cc(O)c4-c4cc3ccc4O)C(OC3CC(C)(N)C(O)C(C)O3)c3ccc(c(Cl)c3)Oc3cc2cc(c3OC2OC(CO)C(O)C(O)C2OC2CC(C)(NCc3ccc(Sc4ccccc4)cc3)C(O)C(C)O2)Oc2ccc(cc2Cl)C1O (stereo not drawn) [Compound 108]
target or system: Staphylococcus aureus 447
measured number: 0.5
--
compound: CNC(CC(C)C)C(=O)NC1C(=O)NC(CC(N)=O)C(=O)NC2C(=O)NC3C(=O)NC(C(=O)NC(C(=O)O)c4cc(O)cc(O)c4-c4cc3ccc4O)C(OC3CC(C)(N)C(O)C(C)O3)c3ccc(c(Cl)c3)Oc3cc2cc(c3OC2OC(CO)C(O)C(O)C2OC2CC(C)(NCc3ccc(-c4ccc(C)cc4)cc3C)C(O)C(C)O2)Oc2ccc(cc2Cl)C1O (stereo not drawn) [Compound 222]
target or system: Staphylococcus aureus 447
measured number: 0.5
--
compound: CNC(CC(C)C)C(=O)NC1C(=O)NC(CC(N)=O)C(=O)NC2C(=O)NC3C(=O)NC(C(=O)NC(C(=O)O)c4cc(O)cc(O)c4-c4cc3ccc4O)C(OC3CC(C)(N)C(O)C(C)O3)c3ccc(c(Cl)c3)Oc3cc2cc(c3OC2OC(CO)C(O)C(O)C2OC2CC(C)(NCc3cncc(-c4ccccc4)c3)C(O)C(C)O2)Oc2ccc(cc2Cl)C1O (stereo not drawn) [Compound 101]
target or system: Staphylococcus aureus 447
measured number: 1
